- Tested on: Pseudomonas aeruginosa
- run.description: Antibacterial activity against Pseudomonas aeruginosa after 24 hrs by tube dilution method
- Format: functional
-logMIC values for the compounds below.
Format: numeric value only, no unit, no commentary.

O=S(=O)(c1ccccc1)N1N=C2CCCCC2C1c1ccc(Cl)cc1 (configuration not stated) tested on Pseudomonas aeruginosa gave -logMIC: 2.67

Observed -logMIC, Pseudomonas aeruginosa, COc1ccc(C2C3CCCCC3=NN2S(=O)(=O)c2ccc(Cl)cc2)cc1 (configuration not stated) : 2.7

Test item Clc1ccc(C2NN=C3CCCCC32)cc1 (configuration not stated) ; Pseudomonas aeruginosa; reported -logMIC was 2.19

Hey, Pseudomonas aeruginosa data for O=C(O)c1cn(C2CC2)c2cc(N3CCNCC3)c(F)cc2c1=O [CIPROFLOXACIN] : -logMIC came out at 2.62

Let me check: COc1ccc(C2C3CCCCC3=NN2S(=O)(=O)c2ccc(C)cc2)cc1 (configuration not stated) , system Pseudomonas aeruginosa, measured -logMIC is 2.58

# value of -logMIC, Pseudomonas aeruginosa, item COc1ccc(C2C3CCCCC3=NN2S(=O)(=O)c2ccc([N+](=O)[O-])cc2)cc1 (configuration not stated) = 2.72

Readout -logMIC for CS(=O)(=O)N1N=C2CCCCC2C1c1ccc(Cl)cc1 (configuration not stated) , test system Pseudomonas aeruginosa, was 2.5

Summary line: O=S(=O)(c1ccccc1)N1N=C2CCCCC2C1c1ccc(F)cc1 (configuration not stated) , Pseudomonas aeruginosa, reported -logMIC = 2.71

// assay Pseudomonas aeruginosa, entry O=S(=O)(c1ccc(Cl)cc1)N1N=C2CCCCC2C1c1ccc(F)cc1 (configuration not stated) , -logMIC value = 2.79

The measured -logMIC that COc1ccc(C2C3CCCCC3=NN2S(C)(=O)=O)cc1 (configuration not stated) showed for Pseudomonas aeruginosa is 2.49

Lab entry: Pseudomonas aeruginosa assay, compound O=S(=O)(c1cccc2ccccc12)N1N=C2CCCCC2C1c1ccc(Cl)cc1 (configuration not stated) , -logMIC = 2.67

Test item O=[N+]([O-])c1ccc(S(=O)(=O)N2N=C3CCCCC3C2c2ccc(F)cc2)cc1 (configuration not stated) ; Pseudomonas aeruginosa; reported -logMIC was 2.81

Recorded -logMIC for CS(=O)(=O)N1N=C2CCCCC2C1c1ccc(F)cc1 (configuration not stated) on Pseudomonas aeruginosa was 2.52

// assay Pseudomonas aeruginosa, entry Cc1ccc(S(=O)(=O)N2N=C3CCCCC3C2c2ccc(Cl)cc2)cc1 (configuration not stated) , -logMIC value = 2.64

Observed -logMIC, Pseudomonas aeruginosa, Fc1ccc(C2NN=C3CCCCC32)cc1 (configuration not stated) : 2.24

I looked up O=S(=O)(c1cccc2ccccc12)N1N=C2CCCCC2C1c1ccc(F)cc1 (configuration not stated) and its -logMIC for Pseudomonas aeruginosa was 2.77

Log: Pseudomonas aeruginosa, compound COc1ccc(C2C3CCCCC3=NN2S(=O)(=O)c2ccccc2)cc1 (configuration not stated) , -logMIC = 2.61

====

- Tested on: Candida albicans
- run.description: Antifungal activity against Candida albicans after 48 hrs by tube dilution method
- Type: functional
# -logMIC per record follows
Enter a number only.

COc1ccc(C2C3CCCCC3=NN2S(=O)(=O)c2ccc(C)cc2)cc1 (configuration not stated) | 2.63
O=S(=O)(c1cccc2ccccc12)N1N=C2CCCCC2C1c1ccc(F)cc1 (configuration not stated) | 2.61
O=[N+]([O-])c1ccc(S(=O)(=O)N2N=C3CCCCC3C2c2ccc(F)cc2)cc1 (configuration not stated) | 2.65
O=S(=O)(c1ccccc1)N1N=C2CCCCC2C1c1ccc(F)cc1 (configuration not stated) | 2.6
O=[N+]([O-])c1ccc(S(=O)(=O)N2N=C3CCCCC3C2c2ccc(Cl)cc2)cc1 (configuration not stated) | 2.82

CS(=O)(=O)N1N=C2CCCCC2C1c1ccc(F)cc1 (configuration not stated) has a reported -logMIC of 2.47

response.value for COc1ccc(C2C3CCCCC3=NN2S(=O)(=O)c2ccc([N+](=O)[O-])cc2)cc1 (configuration not stated) (field: -logMIC) = 2.77

What the record says about Cc1ccc(S(=O)(=O)N2N=C3CCCCC3C2c2ccc(F)cc2)cc1 (configuration not stated) : -logMIC is 2.57

Entry O=S(=O)(c1cccc2ccccc12)N1N=C2CCCCC2C1c1ccc(Cl)cc1 (configuration not stated) , -logMIC reported as 2.73

Recorded -logMIC (compound COc1ccc(C2NN=C3CCCCC32)cc1 (configuration not stated) ): 2.19
